system: WPMY1-TP53BP1-CLTA; experiment: phenotypically active (imaging signature differs from DMSO and reproducible) at any of 0.3-9 uM (binary (1 = active, 0 = inactive)); higher = active; conditions: treatment time: 24 h
Counter-ions that a name gives are not always drawn.
Entry note: the call must match one of 1.0 = active, 0.0 = inactive

Consider the following illustrative entries.
molecule | qualitativeLabel
O=P1(N(CCCl)CCCl)NCCCO1 (centres undefined) [cyclophosphamide] | 0.0
O=C(Nc1ccncc1)C(=O)c1cn(Cc2ccc(Cl)cc2)c2ccccc12 | 1.0
N[C@@H]1C[C@H]1c1ccccc1 [Tranylcypromine hydrochloride] | 0.0

API: the following record is the query input.
Ask: Would you mind telling me which call this test gave `CCN1C[C@]2(COC)CC[C@H](OC)[C@]34[C@@H]5C[C@H]6[C@H](OC)[C@@H]5[C@@]5(C[C@@H]6OC)OCO[C@@]5([C@H]13)[C@@H](O)[C@H]24` ?
Result: 0.0
